- System: HT-29
- protocol: NCI tumour cell line growth inhibition, 48 h
The source made the active and inactive calls. Cut-off read from the data, not from the text of the source: active = GI50 up to about 1.1 µM and inactive = higher.
Assignment: determine reported GI50 for the given molecules.

QUERY: // GI50 lookup, key: Cc1n[nH]c(=O)c2cc(-c3ccccc3)[nH]c12
RESULT: 33.2 µM (inactive)

QUERY: Can you look up the measured GI50 of O=C(c1cc2c(C(F)(F)F)onc2c2ccccc12)C(F)(F)F for me?
RESULT: 3.7 µM (inactive)

QUERY: Using the record for OCC#CCNCl , report its GI50.
RESULT: > 28.1 µM (inactive)

QUERY: May I ask what GI50 has been recorded for Cc1[nH]c2ccccc2c1C1Cc2ccccc2N1C(=O)C#Cc1ccc([N+](=O)[O-])cc1 (stereo not given) ?
RESULT: > 100 µM (inactive)

QUERY: I have this molecule here, Nc1cc2ncnc(Nc3cccc(Br)c3)c2cn1 , and I need its recorded GI50.
RESULT: 31.4 µM (inactive)

QUERY: Request the reported GI50 associated with Cc1cc(NS(=O)(=O)c2ccc(NC(NC(=O)C(C(F)(F)F)C(F)(F)F)(C(F)(F)F)C(F)(F)F)cc2)no1
RESULT: > 100 µM (inactive)

QUERY: Reported GI50, molecule c1cc(-c2cn3c(n2)SCC3)ccn1 : ____
RESULT: > 100 µM (inactive)

QUERY: Look at this molecule and give its reported GI50. CC(/C=C/C(=O)c1sc(-n2nc(-c3ccccc3)cc2-c2ccccc2)nc1C)=C\c1ccccc1
RESULT: > 10 µM (inactive)

QUERY: // lookup GI50 for CCN(c1ccc(Br)cc1)c1c(Br)c(=O)nc2ccccn12
RESULT: > 100 µM (inactive)

QUERY: Quick one: GI50 for C[C@@H]1CC[C@@H]2[C@@H](C1)O[C@@H]([C@@H](C)OCc1ccccc1)SC2(C)C ?
RESULT: 18.8 µM (inactive)
